B1: LINE1-full (parent)
chain: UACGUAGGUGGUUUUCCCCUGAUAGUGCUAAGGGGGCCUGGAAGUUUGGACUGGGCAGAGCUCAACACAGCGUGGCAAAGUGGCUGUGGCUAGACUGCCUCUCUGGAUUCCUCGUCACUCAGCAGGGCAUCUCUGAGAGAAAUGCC

Variants of: B1
Experiment: self-cleavage, relative activity (ratio to wild type); higher = more cleavage; in vitro, sequencing; the parent is a self-cleaving ribozyme
Recorded metric: self-cleavage

Task: Can you share its self-cleavage? I mean this variant: UACGUAGGUGGUUUCCCCCUGAUAGUGCUAAGGGGGCCUGGAAGUUUGGACUGGGCAGAGCUCAACACAGCGUGGCAAAGUGGCUGUGGCUAGACUGCCUCUCUGGAUUCCUCGUCACUAAGCAGGGCAUCUCUGAGAGAAAUGCC [U15C C120A]
Output: 1.31

Task: Here is the next variant: UACGUAGGUGGUUUUCCCCUGAUAGUACUAAGGGGGCCUGGAAGUUUGGACUGGGCAGAGCUCAACACAGCGUGGCAAAGUGGCUGUGGCUAGACUGCCUCUCUGGAUUCCUCGUCACUCAGCAGGGCAUCUCUGAGCGAAAUGCC [G27A A138C]
Output: 1.18

Task: Here is the next variant: UACGUAGGUGGUUUUCCCCUGAUAGUGCUAAGGGGGCCUGGAAGUUUGGACUGGGCAGAGCUCUACACAGCGUGGCAAAGUGGCUGUGGCUAGACUGCCUCUCUGGAUUCCUCGUCACUCAGCAGGGCAUCUCUGAGAGAAAUACC [A64U G144A]
Output: 0.42

Task: Here is the next variant: UACGUAGGUGGUUUUCCCCUGAUAGUGCUAAGGGGGCCUGGAAGUUUAGACUGGGCAGAGCUCAACACAGCGUGGCAAAGUGGCUGUGGCUAGACUGCCUCUCUGGAUUCCUCGUCACUCAGCAGGGCAUCUCUGAGAGUAAUGCC [G48A A140U]
Output: 1.28

Task: Here is the next variant: UACGUAGGUGGUUUACCCCUGAUAGUGCUUAGGGGGCCUGGAAGUUUGGACUGGGCAGAGCUCAACACAGCGUGGCAAAGUGGCUGUGGCUAGACUGCCUCUCUGGAUUCCUCGUCACUCAGCAGGGCAUCUCUGAGAGAAAUGCC [U15A A30U]
Output: 0.85

Task: Here is the next variant: UACGUAGGUGGUUUUCCCCUGAUAGUGCUAAGGGGGCCUGGAAGUUUGGACUGGGCAGAGCUCAACACAGCGUGGCAAAGUGGCUGUGGCUAGACUGCCUCUCUGGAUUCCUCGUCACUCAGCAGGGCACCUCUGAGUGAAAUGCC [U130C A138U]
Output: 1.36

Task: Here is the next variant: UACGUAGGUGGUUUUCCCCUGAUAGUGCUAAGGGGGCCUGGAAGUUUGGACUGGGCAGAGCUCAACACAGCGUGGCAGAGUGGCUGUGGCUAGACUGCCUCUCUGGAUUCCUCGUCACUCAGCAGGGCAUCUCUGAGAGAAAUACC [A78G G144A]
Output: 1.3

Task: Here is the next variant: UACGUAGGUGGUUUUCCCCUGAUAGUGCUAAGGGGGCCUGGAAGUUUGGACUGGGCAGAGCUCAACACAGCGUGGCAAAGUGGCUGUGGCUAGACAGCCUCUCUGGAUUCCUCGUCACUCAGCAGGGCUUCUCUGAGAGAAAUGCC [U96A A129U]
Output: 0.07

Task: Here is the next variant: UACGUAGGUGGUUUUCCCCUGAUAGUGCUAAGGGGGCCUGGAAGUUUGGACUGGGCAGAGCUCAACACAGCGUGGCAAAGUGGCUGUGGCUAGACUGCCUCUCUGGAUUCCUCGUCACUCAGCAGGGCUUCUCUGAGAGAAACGCC [A129U U143C]
Output: 1.64

Task: Here is the next variant: UAUGCAGGUGGUUUUCCCCUGAUAGUGCUAAGGGGGCCUGGAAGUUUGGACUGGGCAGAGCUCAACACAGCGUGGCAAAGUGGCUGUGGCUAGACUGCCUCUCUGGAUUCCUCGUCACUCAGCAGGGCAUCUCUGAGAGAAAUGCC [C3U U5C]
Output: 1.16

Task: Here is the next variant: UACGUAGGUGGUUUUCCCCUGAUAGUGCUAAGGGGGCCUGGAAGUUUGGACUGGGCAGAGCUCAACACAGUGUGGCAAAGUGGCUGUGGCUAGACUGCCUCUCUGGAUUCCUCGCCACUCAGCAGGGCAUCUCUGAGAGAAAUGCC [C71U U115C]
Output: 1.12

Task: Here is the next variant: UACGUAGGUGGUUUUCCCCUGAUAGUGCUAAGGGGGCCUGGAAGUUUGGACUGGGCAGAGCUCAACACAGCGUGGCAAGGUGGCUGUGGCUAGACUGCCUCUCUGGAUUCCUCGUCACUCAGCAGGGCAUCUCUAAGAGAAAUGCC [A79G G135A]
Output: 1.38
